Values compiled from BindingDB's records for doi:10.1016/s0968-0896(99)00306-5.

IC50, Cholinesterase (Homo sapiens): measured values
Experimental Readout: IC50 (µM)

Smiles: c1ccc(CNc2c3c(nc4ccccc24)-c2ccccc2C3)cc1
Result Unit: µM
Readout Value: 0.5
--
Smiles: Nc1c2c(nc3ccccc13)-c1ccccc1C2
Result Unit: µM
Readout Value: 4.7
--
Smiles: CNc1c2c(nc3ccccc13)-c1ccccc1C2
Result Unit: µM
Readout Value: 1.6
--
Smiles: Nc1c2c(nc3cc(F)ccc13)-c1ccccc1C2
Result Unit: µM
Readout Value: 5.7
--
Smiles: COc1cccc2c1Cc1c-2nc2ccccc2c1N
Result Unit: µM
Readout Value: 3
--
Smiles: Nc1c2c(nc3ccccc13)-c1ccc(F)cc1C2
Result Unit: µM
Readout Value: 7.1

###

# Assay Target: UniProt:P22303
# Sequence (P22303 whole entry): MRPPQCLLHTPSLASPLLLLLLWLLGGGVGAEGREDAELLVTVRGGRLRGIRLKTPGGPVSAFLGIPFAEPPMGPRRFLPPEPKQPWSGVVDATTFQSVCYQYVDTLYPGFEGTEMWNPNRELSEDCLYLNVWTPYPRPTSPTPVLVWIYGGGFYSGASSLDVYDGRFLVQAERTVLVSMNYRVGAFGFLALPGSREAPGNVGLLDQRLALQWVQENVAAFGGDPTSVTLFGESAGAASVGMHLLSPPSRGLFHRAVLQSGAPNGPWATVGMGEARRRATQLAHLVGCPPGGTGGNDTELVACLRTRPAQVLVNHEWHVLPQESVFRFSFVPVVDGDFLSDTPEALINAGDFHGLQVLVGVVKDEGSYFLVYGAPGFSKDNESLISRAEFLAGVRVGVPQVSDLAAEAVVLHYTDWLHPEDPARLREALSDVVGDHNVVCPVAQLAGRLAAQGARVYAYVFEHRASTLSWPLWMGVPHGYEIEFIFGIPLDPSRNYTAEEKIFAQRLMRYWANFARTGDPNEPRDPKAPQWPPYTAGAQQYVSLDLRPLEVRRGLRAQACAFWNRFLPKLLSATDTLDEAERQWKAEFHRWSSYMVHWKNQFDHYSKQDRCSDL
Threshold 6 µM: IC50 strictly smaller gives satisfied, otherwise not satisfied.

Smiles: Cc1cccc2c1Cc1c-2nc2ccccc2c1N
Assigned Category: satisfied
//
Smiles: Nc1c2c(nc3ccc([N+](=O)[O-])cc13)-c1ccccc1C2
Assigned Category: not satisfied
//
Smiles: COc1ccc2c(c1)Cc1c-2nc2ccccc2c1N
Assigned Category: not satisfied
//
Smiles: c1ccc(CNc2c3c(nc4ccccc24)-c2ccccc2C3)cc1
Assigned Category: not satisfied
//
Smiles: Nc1c2c(nc3cc([N+](=O)[O-])ccc13)-c1ccccc1C2
Assigned Category: not satisfied
